# TARGET_OR_TEST_SYSTEM: extracellular domains of PD-L1 (Homo sapiens, UniProt Q9NZQ7)
# Construct: specifically dimerize the extracellular domains of PD-L1
# Sequence (Q9NZQ7 19-238 limits assumed): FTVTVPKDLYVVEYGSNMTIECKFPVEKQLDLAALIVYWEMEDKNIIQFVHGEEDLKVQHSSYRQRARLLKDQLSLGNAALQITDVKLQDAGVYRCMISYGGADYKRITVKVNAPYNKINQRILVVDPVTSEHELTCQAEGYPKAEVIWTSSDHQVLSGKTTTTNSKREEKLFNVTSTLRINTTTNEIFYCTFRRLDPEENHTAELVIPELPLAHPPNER
# ASSAY_NOTES: PD-L1 Dimerization
# CONDITION_NOTES: PD-L1-Eu and PD-L1-A2, ratio 665 nm/615 nm
Counter-ions that a name gives are not always drawn.
MEASURE: EC50

Please review the entries below; each comes with its answer.
Cc1cn2nc(-c3cccc(-c4cccc(-c5cc6c(=O)n(CCN[C@@H](CO)C(=O)O)c(C)cn6n5)c4Cl)c3Cl)cc2c(=O)n1CCN[C@@H](CO)C(=O)O = 50 to 100 nM
Cc1cn2cc(-c3cccc(-c4cccc(-c5cc6c(=O)n(CCNC[C@@H]7CCC(=O)N7)c(C)cn6c5)c4Cl)c3Cl)cc2c(=O)n1CCNC[C@@H]1CCC(=O)N1 = ≥ 100 nM
Cc1cn2nc(-c3cccc(-c4cccc(-c5cc6c(=O)n(CCNCCO)c(C)cn6n5)c4Cl)c3Cl)cc2c(=O)n1CCNCCO = < 50 nM
Cc1cn2nc(-c3cccc(-c4cccc(-c5cc6c(=O)n(C[C@@H]7CCCN7)c(C)cn6n5)c4Cl)c3Cl)cc2c(=O)n1C[C@@H]1CCCN1 [Compound 36, dihydrochloride] = < 50 nM

With those in mind, consider the next molecule.
Report EC50 for Cc1cn2nc(-c3cccc(-c4cccc(-c5cc6c(=O)n(CCN[C@]7(C(=O)O)C[C@@H](O)C7)c(C)cn6n5)c4Cl)c3Cl)cc2c(=O)n1CCN[C@]1(C(=O)O)C[C@@H](O)C1 please.
< 50 nM
